All values here come from ChEMBL document CHEMBL1149551.

Entries and their EC50 values follow.
Assayed System: Peroxisome proliferator-activated receptor alpha (Homo sapiens)
Method Summary: Agonist activity at human PPARalpha by transactivation assay

COc1ccc(C#CC(/C=C\CSc2ccc(OCC(=O)O)c(C)c2)c2ccc(-c3ccccc3)cc2)cc1 (centres undefined) ... > 10 µM

Inquiry: Please indicate EC50 recorded for "Cc1cc(SC/C=C/C#Cc2ccccc2)ccc1OCC(=O)O"
Reply text: 14 µM

Inquiry: Please indicate EC50 recorded for Cc1cc(SC/C=C\C(C#Cc2ccccc2)c2ccc(Br)cc2)ccc1OCC(=O)O (centres undefined)
Reply text: > 10 µM

Inquiry: Please indicate EC50 recorded for "CCO[C@@H](Cc1ccc(OC/C=C(\C#Cc2ccccc2)c2ccccc2)cc1)C(=O)O"
Reply text: > 10 µM

----------
Assayed System: Peroxisome proliferator-activated receptor alpha (Homo sapiens) (UniProt Q07869)
Method Summary: Agonist activity at human PPARalpha by transactivation assay relative to NNC 61-4655
Type: functional
Entries and their %max values follow.

Cc1cc(OC/C=C(\C#Cc2ccccc2)c2ccccc2)ccc1OCC(=O)O ... < 10%
Cc1cc(OC/C=C(\C#Cc2ccccc2)c2ccc(Br)cc2)ccc1OCC(=O)O ... < 10%
Cc1cc(OC/C=C\C(C#Cc2ccccn2)c2ccc(Br)cc2)ccc1OCC(=O)O (stereo not drawn) ... > 22%
Cc1cc(OC/C=C\C(C#Cc2ccccc2)c2cnc3ccccc3c2)ccc1OCC(=O)O (stereo not drawn) ... 33%

Inquiry: Please indicate %max recorded for Cc1ccc(C#CC(/C=C\COc2ccc(OCC(=O)O)c(C)c2)c2ccc(Br)cc2)s1 (stereo not drawn)
Reply text: > 15%

Inquiry: Please indicate %max recorded for "Cc1ccc(-c2ccc(/C(C#Cc3ccccc3)=C/COc3ccc(OCC(=O)O)c(C)c3)cc2)s1"
Reply text: > 60%

Inquiry: Please indicate %max recorded for COc1ccc(C#CC(/C=C\CSc2ccc(OCC(=O)O)c(C)c2)c2ccc(-c3ccccc3)cc2)cc1 (stereo not drawn)
Reply text: > 58%

----------
Assayed System: Peroxisome proliferator-activated receptor gamma (Homo sapiens, UniProt P37231)
Sequence (P37231 whole entry): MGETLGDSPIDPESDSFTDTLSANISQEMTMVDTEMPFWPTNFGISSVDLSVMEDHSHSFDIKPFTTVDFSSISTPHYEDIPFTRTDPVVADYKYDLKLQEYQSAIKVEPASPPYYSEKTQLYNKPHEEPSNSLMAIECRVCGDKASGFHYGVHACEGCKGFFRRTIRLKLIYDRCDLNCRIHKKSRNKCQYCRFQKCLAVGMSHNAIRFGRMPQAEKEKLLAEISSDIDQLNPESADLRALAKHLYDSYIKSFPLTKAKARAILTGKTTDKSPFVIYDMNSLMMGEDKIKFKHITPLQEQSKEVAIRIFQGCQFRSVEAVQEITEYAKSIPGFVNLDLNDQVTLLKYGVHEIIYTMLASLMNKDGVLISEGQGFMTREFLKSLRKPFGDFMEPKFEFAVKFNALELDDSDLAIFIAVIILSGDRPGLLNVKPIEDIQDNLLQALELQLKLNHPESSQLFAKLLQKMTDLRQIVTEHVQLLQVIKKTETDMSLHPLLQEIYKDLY
Metric Name: EC50 (µM)
// units = µM; emit number, no label

CCO[C@@H](Cc1ccc(OC/C=C/C#Cc2ccccc2)cc1)C(=O)O ... 2.6

Now for another entry.
Inquiry: Name the value of EC50 reported for Cc1cc(OC/C=C\C(C#Cc2ccccc2)c2cnc3ccccc3c2)ccc1OCC(=O)O (stereo not given) when tested on Peroxisome proliferator-activated receptor gamma (Homo sapiens, UniProt P37231).
Reply text: 6.6

----------
Entries and their EC50 values follow.
Assayed System: Peroxisome proliferator-activated receptor alpha (Homo sapiens)
Method Summary: Agonist activity at human PPARalpha by transactivation assay
// units = µM; emit number, no label

Cc1cc(OC/C=C\C(C#Cc2ccccc2)c2cnc3ccccc3c2)ccc1OCC(=O)O (stereo not given) ... 4.1

Now for another entry.
Inquiry: Please indicate EC50 recorded for Cc1cc2cc(C(C#Cc3ccc(C)s3)/C=C\COc3ccc(OCC(=O)O)c(C)c3)ccc2o1 (stereo not given)
Reply text: 5.8

----------
Assayed System: Peroxisome proliferator-activated receptor alpha (Homo sapiens) (UniProt Q07869)
Sequence (whole entry): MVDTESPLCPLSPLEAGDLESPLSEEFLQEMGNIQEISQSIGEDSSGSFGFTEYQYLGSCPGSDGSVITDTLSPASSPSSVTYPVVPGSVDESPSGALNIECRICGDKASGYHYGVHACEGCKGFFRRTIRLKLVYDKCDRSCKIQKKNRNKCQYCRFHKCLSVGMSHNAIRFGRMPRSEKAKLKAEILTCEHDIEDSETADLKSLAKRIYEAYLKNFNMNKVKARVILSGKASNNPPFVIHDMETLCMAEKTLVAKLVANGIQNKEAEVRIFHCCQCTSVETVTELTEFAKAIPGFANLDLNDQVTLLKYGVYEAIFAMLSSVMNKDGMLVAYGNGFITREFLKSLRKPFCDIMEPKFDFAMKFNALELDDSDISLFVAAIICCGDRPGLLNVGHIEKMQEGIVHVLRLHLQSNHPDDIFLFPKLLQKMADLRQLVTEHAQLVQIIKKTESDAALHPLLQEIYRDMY
Method Summary: Agonist activity at human PPARalpha by transactivation assay relative to NNC 61-4655
Format: functional
Entries and their %max values follow.

Study these solved cases before continuing.
Cc1cc(SC/C=C\C(C#Cc2ccccc2)c2ccc(Br)cc2)ccc1OCC(=O)O (stereo unspecified) ... > 24%
Cc1cc(OC/C=C\C(C#Cc2ccc(C(F)(F)F)cc2)c2ccc(Br)cc2)ccc1OCC(=O)O (stereo unspecified) ... > 19%
Cc1cc(SCc2sc(-c3ccc(C(F)(F)F)cc3)nc2C)ccc1OCC(=O)O ... 68%
CN(CCOc1ccc(CC2SC(=O)NC2=O)cc1)c1ccccn1 (stereo unspecified) ... > 24%
Cc1cc2cc(C(C#Cc3ccc(C)s3)/C=C\COc3ccc(OCC(=O)O)c(C)c3)ccc2o1 (stereo unspecified) ... < 10%

Now for another entry.
Inquiry: Name the value of %max reported for Cc1cc2cc(C(C#Cc3ccc(F)cc3)/C=C\COc3ccc(OCC(=O)O)c(C)c3)ccc2o1 (stereo unspecified) when tested on Peroxisome proliferator-activated receptor alpha (Homo sapiens) (UniProt Q07869).
Reply text: > 41%
